# Target: mTORC2 (Homo sapiens, UniProt P42345+P62942)
# Construct: endogenous in cells; host or cells: PC3 cells (human prostate adenocarcinoma)
# Test Summary: Inhibition assay for mTORC2: phosphorylation of pAkt at Ser473, AlphaLISA SureFire in PC3 cells
# Assay type: cell-based
# Experimental Parameters: PC3 cells, 24 hours treatment, analogs substituted at C40 and C16 (C16 diastereomer mixtures not isolated), read-out: pIC50 mTORC2 (converted)
Measured IC50 of individual entries

Molecule	IC50
CO[C@@H]1C[C@H](C[C@@H](C)[C@@H]2CC(=O)[C@H](C)/C=C(\C)[C@@H](O)[C@@H](OC)C(=O)[C@H](C)C[C@H](C)/C=C/C=C/C=C(\C)C(OCCc3ccccc3)C[C@@H]3CC[C@@H](C)[C@@](O)(O3)C(=O)C(=O)N3CCCCC3C(=O)O2)CC[C@H]1OC(=O)N(C)CCO (stereo partly shown)	< 1000 nM

Result for CO[C@@H]1C[C@H](C[C@@H](C)[C@@H]2CC(=O)[C@H](C)/C=C(\C)[C@@H](O)[C@@H](OC)C(=O)[C@H](C)C[C@H](C)/C=C/C=C/C=C(\C)C(OCCO)C[C@@H]3CC[C@@H](C)[C@@](O)(O3)C(=O)C(=O)N3CCCCC3C(=O)O2)CC[C@H]1OCCCN1CCO[C@H](C)C1 (stereo partly shown) , tested on mTORC2 (Homo sapiens, UniProt P42345+P62942), IC50: 1000 to 10000 nM

Result for COCCOC1C[C@@H]2CC[C@@H](C)[C@@](O)(O2)C(=O)C(=O)N2CCCCC2C(=O)O[C@H]([C@H](C)C[C@@H]2CC[C@@H](OC(=O)NCCN3CCCCC3)[C@H](OC)C2)CC(=O)[C@H](C)/C=C(\C)[C@@H](O)[C@@H](OC)C(=O)[C@H](C)C[C@H](C)/C=C/C=C/C=C/1C (stereo partly shown) , tested on mTORC2 (Homo sapiens, UniProt P42345+P62942), IC50: 1000 to 10000 nM

Result for CO[C@@H]1C[C@H](C[C@@H](C)[C@@H]2CC(=O)[C@H](C)/C=C(\C)[C@@H](O)[C@@H](OC)C(=O)[C@H](C)C[C@H](C)/C=C/C=C/C=C(\C)C(OCCc3ccccc3)C[C@@H]3CC[C@@H](C)[C@@](O)(O3)C(=O)C(=O)N3CCCCC3C(=O)O2)CC[C@H]1OCCCO (stereo partly shown) , tested on mTORC2 (Homo sapiens, UniProt P42345+P62942), IC50: 1000 to 10000 nM

Result for CO[C@@H]1C[C@H](C[C@@H](C)[C@@H]2CC(=O)[C@H](C)/C=C(\C)[C@@H](O)[C@@H](OC)C(=O)[C@H](C)C[C@H](C)/C=C/C=C/C=C(\C)C(OCCc3ccccc3)C[C@@H]3CC[C@@H](C)[C@@](O)(O3)C(=O)C(=O)N3CCCCC3C(=O)O2)CC[C@H]1OC(=O)NCCN(C)C (stereo partly shown) , tested on mTORC2 (Homo sapiens, UniProt P42345+P62942), IC50: < 1000 nM

Result for CO[C@@H]1CC[C@@H](C[C@@H](C)[C@@H]2CC(=O)[C@H](C)/C=C(\C)[C@@H](O)[C@@H](OC)C(=O)[C@H](C)C[C@H](C)/C=C/C=C/C=C(\C)C(OCCCCO)C[C@@H]3CC[C@@H](C)[C@@](O)(O3)C(=O)C(=O)N3CCCCC3C(=O)O2)C[C@H]1OC (stereo partly shown) , tested on mTORC2 (Homo sapiens, UniProt P42345+P62942), IC50: > 10000 nM

Result for CO[C@@H]1C[C@H](C[C@@H](C)[C@@H]2CC(=O)[C@H](C)/C=C(\C)[C@@H](O)[C@@H](OC)C(=O)[C@H](C)C[C@H](C)/C=C/C=C/C=C(\C)C(OCCCCO)C[C@@H]3CC[C@@H](C)[C@@](O)(O3)C(=O)C(=O)N3CCCCC3C(=O)O2)CC[C@H]1OCCO (stereo partly shown) , tested on mTORC2 (Homo sapiens, UniProt P42345+P62942), IC50: 1000 to 10000 nM

Result for CO[C@@H]1C[C@H](C[C@@H](C)[C@@H]2CC(=O)[C@H](C)/C=C(\C)[C@@H](O)[C@@H](OC)C(=O)[C@H](C)C[C@H](C)/C=C/C=C/C=C(\C)C(OCc3ccccc3)C[C@@H]3CC[C@@H](C)[C@@](O)(O3)C(=O)C(=O)N3CCCCC3C(=O)O2)CC[C@H]1OCCCc1ccccc1 (stereo partly shown) , tested on mTORC2 (Homo sapiens, UniProt P42345+P62942), IC50: < 1000 nM

Result for CO[C@@H]1C[C@H](C[C@@H](C)[C@@H]2CC(=O)[C@H](C)/C=C(\C)[C@@H](O)[C@@H](OC)C(=O)[C@H](C)C[C@H](C)/C=C/C=C/C=C(\C)C(OCCc3ccccc3)C[C@@H]3CC[C@@H](C)[C@@](O)(O3)C(=O)C(=O)N3CCCCC3C(=O)O2)CC[C@H]1OCCCN1CCN(C)CC1 (stereo partly shown) , tested on mTORC2 (Homo sapiens, UniProt P42345+P62942), IC50: < 1000 nM

Result for CO[C@@H]1C[C@H](C[C@@H](C)[C@@H]2CC(=O)[C@H](C)/C=C(\C)[C@@H](O)[C@@H](OC)C(=O)[C@H](C)C[C@H](C)/C=C/C=C/C=C(\C)C(OCCO)C[C@@H]3CC[C@@H](C)[C@@](O)(O3)C(=O)C(=O)N3CCCCC3C(=O)O2)CC[C@H]1OC(=O)NCCn1cnnn1 (stereo partly shown) , tested on mTORC2 (Homo sapiens, UniProt P42345+P62942), IC50: 1000 to 10000 nM

Result for CO[C@@H]1C[C@H](C[C@@H](C)[C@@H]2CC(=O)[C@H](C)/C=C(\C)[C@@H](O)[C@@H](OC)C(=O)[C@H](C)C[C@H](C)/C=C/C=C/C=C(\C)C(OCc3ccccc3)C[C@@H]3CC[C@@H](C)[C@@](O)(O3)C(=O)C(=O)N3CCCCC3C(=O)O2)CC[C@H]1OC(=O)NCCc1ccccc1 (stereo partly shown) , tested on mTORC2 (Homo sapiens, UniProt P42345+P62942), IC50: < 1000 nM

Result for CO[C@@H]1C[C@H](C[C@@H](C)[C@@H]2CC(=O)[C@H](C)/C=C(\C)[C@@H](O)[C@@H](OC)C(=O)[C@H](C)C[C@H](C)/C=C/C=C/C=C(\C)C(OCCOCCO)C[C@@H]3CC[C@@H](C)[C@@](O)(O3)C(=O)C(=O)N3CCCCC3C(=O)O2)CC[C@H]1OCCCO (stereo partly shown) , tested on mTORC2 (Homo sapiens, UniProt P42345+P62942), IC50: > 10000 nM

Result for COCCOC1C[C@@H]2CC[C@@H](C)[C@@](O)(O2)C(=O)C(=O)N2CCCCC2C(=O)O[C@H]([C@H](C)C[C@@H]2CC[C@@H](OC)[C@H](OC)C2)CC(=O)[C@H](C)/C=C(\C)[C@@H](O)[C@@H](OC)C(=O)[C@H](C)C[C@H](C)/C=C/C=C/C=C/1C (stereo partly shown) , tested on mTORC2 (Homo sapiens, UniProt P42345+P62942), IC50: > 10000 nM

====

# Target: mTORC2 (Homo sapiens, UniProt P42345+P62942)
# Construct: endogenous in cells; host or cells: PC3 cells (human prostate adenocarcinoma)
# Test Summary: Inhibition assay for mTORC2: phosphorylation of pAkt at Ser473, AlphaLISA SureFire in PC3 cells
# Type: cell-based
# Experimental Parameters: PC3 cells, 24 hours treatment, analogs substituted at C40 and C16 (C16 diastereomer mixtures not isolated), read-out: pIC50 mTORC2 (converted)
Parameter Measured: IC50

Molecule	Target	Parameter Measured	Measured Value
CO[C@@H]1C[C@H](C[C@@H](C)[C@@H]2CC(=O)[C@H](C)/C=C(\C)[C@@H](O)[C@@H](OC)C(=O)[C@H](C)C[C@H](C)/C=C/C=C/C=C(\C)C(OCc3ccccc3)C[C@@H]3CC[C@@H](C)[C@@](O)(O3)C(=O)C(=O)N3CCCCC3C(=O)O2)CC[C@H]1OC(=O)NCCN1CCOCC1 (some centres unmarked)	mTORC2 (Homo sapiens, UniProt P42345+P62942)	IC50	< 1000 nM

Shifting focus to the molecule that follows.
CO[C@@H]1C[C@H](C[C@@H](C)[C@@H]2CC(=O)[C@H](C)/C=C(\C)[C@@H](O)[C@@H](OC)C(=O)[C@H](C)C[C@H](C)/C=C/C=C/C=C(\C)C(OCCO)C[C@@H]3CC[C@@H](C)[C@@](O)(O3)C(=O)C(=O)N3CCCCC3C(=O)O2)CC[C@H]1OC(=O)NCCN1CCOCC1 (some centres unmarked) has a reported IC50 of 1000 to 10000 nM
